Target: cynomolgus monkey (cyno) TIGIT protein (cynomolgus monkey, UniProt A0A7N9I9V4 89-209)
Sequence (A0A7N9I9V4 entry or part of it): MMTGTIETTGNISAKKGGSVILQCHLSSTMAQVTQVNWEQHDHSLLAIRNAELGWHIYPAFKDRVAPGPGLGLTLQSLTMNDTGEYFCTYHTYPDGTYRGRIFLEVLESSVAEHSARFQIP
Experiment: SPR, captured mAb
This section presents binders with their documented kon values.
// note: answer is a bare numeric in M⁻¹ s⁻¹

// solved cases for kon follow
**Q:** Need kon of h15C8.L5aH9a (antibody, V domains shown, Final humanized 15C8; keeps rat VH I47, L37, A67, T71 and VL Y71; FR/HVR pieces) VH: EVQLVQSGAEVKKPGASVKVSCKASGYTFTEHSIYWLRQAPGQRLEIMGRIDPKNGRTYFVDKFKNRATITTDTSASTAYMELSSLRSEDTAVYYCARIDGFYFDFWGQGTLVTVSS VL: DIQLTQSPSFLSASVGDRVTITCKGSQNVNKYLVWYQQKPGKAPKLLIYSTDNLQSGVPSRFSGSGSGTEYTLTISSLQPEDFATYYCYQYNNGFTFGQGTKVEIK , thanks.
**A:** 596000

**Q:** Need kon of h7E7.L1H1 (antibody, V domains shown, First humanized version; FR/HVR pieces in order; also called h1.7E7.L1H1) VH: EVQLVQSGAEVKKPGASVKVSCKASGYTFTEYSIYWVRQAPGQRLEIIGRIDPKNGRTYYVDKFKNRATLTADTSASTAYMELSSLRSEDTAVYFCTRIYGFYFDFWGQGTLVTVSS VL: DIQLTQSPSFLSASVGDRVTITCKGSQNVNKYLVWYQQKPGKAPKLLIYNTDNLQSGIPSRFSGSGSGTEYTLTISSLQPEDFATYFCYQYNNGFTFGQGTKVEIK , thanks.
**A:** 418000

Now let's try a different one.
**Q:** Need kon of h7E7.L1H7 (antibody, V domains shown, VH: F91Y against h7E7.L1H1; FR/HVR pieces) VH: EVQLVQSGAEVKKPGASVKVSCKASGYTFTEYSIYWVRQAPGQRLEIIGRIDPKNGRTYYVDKFKNRATLTADTSASTAYMELSSLRSEDTAVYYCTRIYGFYFDFWGQGTLVTVSS VL: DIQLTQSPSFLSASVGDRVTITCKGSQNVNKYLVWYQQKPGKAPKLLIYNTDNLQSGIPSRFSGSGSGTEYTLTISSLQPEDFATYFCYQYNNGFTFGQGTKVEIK , thanks.
**A:** 664000

Where do the numbers come from? From patent US20220064286A1.
